- testTarget: T1, Myo2-GTD L1331S (Saccharomyces cerevisiae (strain S288c))
- T1 chain: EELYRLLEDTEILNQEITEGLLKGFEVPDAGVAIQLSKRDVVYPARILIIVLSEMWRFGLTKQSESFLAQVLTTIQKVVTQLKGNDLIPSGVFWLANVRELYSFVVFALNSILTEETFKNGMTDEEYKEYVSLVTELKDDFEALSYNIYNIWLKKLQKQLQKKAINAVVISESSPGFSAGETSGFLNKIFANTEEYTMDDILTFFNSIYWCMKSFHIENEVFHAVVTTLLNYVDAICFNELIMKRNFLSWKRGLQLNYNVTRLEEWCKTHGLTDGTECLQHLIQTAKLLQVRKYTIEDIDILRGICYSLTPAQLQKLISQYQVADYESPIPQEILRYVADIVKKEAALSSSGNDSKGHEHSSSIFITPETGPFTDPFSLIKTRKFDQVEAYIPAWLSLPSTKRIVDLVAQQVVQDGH
- protocolText: ITC
parameter: pKd
Numbers only, as −log10 of the molar value.

{"binder": "Kar9^C-MIS (Myo2-interacting sequence in the C-terminal region of Kar9) (domain or fragment) ALKGKKLGKALLQKMNIKPATSPNSSNAINPFFDPESPNKGKLILSSVPPLPY", "measuredNumber": 5.05}

Attention now turns to another entry.
The recorded pKd for PNEAPNDSPQSQSTRSSLGSFQPRPLKIIERQRLCMVTPSKPPKKS (domain or fragment, Saccharomyces cerevisiae (strain S288c), UniProt P25591 112-157, looked up, Vac17 (vacuole-related protein 17), S. cerevisiae, region containing residues 112-157 (MIS); Named Trx-tagged in the light scattering; also called Trx-Vas17-MIS; Vac17-MIS wild-type; source: E. coli BL21(DE3), purified (Ni2+-NTA, size exclusion chromatography); not shown: Trx, N-terminal, kept) [Vac17-MIS (Myo2-interacting sequence of Vac17)] is 6.39
